Measured TGI, listed per entry for reference.
- System: XF 498 CNS
- measurement description: NCI tumour cell line growth inhibition, 48 h

// known answers, use as guide
O=C1C(Cl)C(c2ccccc2Cl)N1n1cnc2ccccc2c1=O (stereo unspecified): > 100 µM
CCc1cccc(C(C)C)c1NC(=O)/C(=N\NC(N)=O)C(C(=O)OC)c1cnc2ccccc2n1 (stereo unspecified): > 100 µM
C=CC12CCCCC1CC(C(=O)OC)=C(O)C2 (stereo unspecified): > 100 µM
CCOC(=O)c1c(CN2CCNCC2)nc2ccc(Cl)cc2c1-c1ccccc1: 9.43 µM
CCOc1ccc(N(CC(=O)N2CC(=O)Nc3cc(C)c(C)cc32)C(C)=O)cc1: > 100 µM
O=C1/C(=C/c2ccccc2Cl)COc2ccc(Br)cc21: > 100 µM

# compound CCOC(=O)C(C)NC(=O)NC12CC3CC(CC(F)(C3)C1)C2 (stereo unspecified) ; its TGI = 89.4 µM

Quick note, TGI for N#CC(Sc1ccccc1)C(N)=O (stereo unspecified) landed at > 100 µM

Input CC1(O)CC2C(CC1SC1CC3C(CC1(C)O)C3(C)C)C2(C)C (stereo unspecified) . Output TGI: > 100 µM

// TGI value for Cn1cnc([N+](=O)[O-])c1Sc1n[nH]c(-c2ccc(Cl)cc2)n1 : 27.6 µM

Form: compound = NC(=O)N/N=C(\CC1OC(=O)c2ccccc21)c1ccc([N+](=O)[O-])cc1 (stereo unspecified) ; TGI = > 100 µM
